System: barnyardgrass
Experiment Notes: Test A pre-/postemergence greenhouse test
Type: in vivo, Echinochloa crus-galli
Measurement Context: Postemergence, 125 g ai/ha; 0 to 100 scale where 0 is no effect and 100 is complete control
Cut-off 50 on Plant response rating, Barnyardgrass, inclusive. At or above means Condition met; below means Condition not met.

{"Compound": "CCn1nc(C(F)(F)F)c(C(C)S(=O)(=O)c2cccc[n+]2[O-])c1OCC(F)(F)F (stereo not drawn)", "Cat": "Condition met"}
{"Compound": "CCn1nc(C(F)(F)F)c(C[S+]([O-])c2cccc[n+]2[O-])c1OCC(F)(F)F (racemic)", "Cat": "Condition met"}
{"Compound": "Cn1nc(C(F)(F)F)c(C[S+]([O-])c2cccc[n+]2[O-])c1OCC(F)F (stereo not drawn)", "Cat": "Condition met"}
{"Compound": "CCc1cc[n+]([O-])c(S(=O)(=O)Cc2c(C(F)(F)F)nn(C)c2OCC(F)(F)F)c1", "Cat": "Condition met"}
{"Compound": "Cc1cc[n+]([O-])c(S(=O)(=O)Cc2c(C(F)(F)F)nn(C)c2OCC(F)(F)C(F)(F)F)c1", "Cat": "Condition not met"}
{"Compound": "CCOc1ccc(S(=O)(=O)Cc2c(C(F)(F)F)nn(C)c2OC(F)F)[n+]([O-])c1", "Cat": "Condition not met"}
